System: Tau-BiFC cells
Assay: Cell viability (cytotoxicity) in tau-BiFC cells, count of stained nuclei
Type: cell-based
Settings: compound 10 μM; Forskolin-only group = 100% cell viability
Each record here notes measured Cell viability (% @10 μM).
Give the value, in units of %, as a plain number.

Known Cell viability (% @10 μM) results, listed for orientation:
INSERT INTO measurements (query_smiles, assay_metric, measured_number) VALUES
  ('N#CC(C#N)=NNc1ccc(Oc2ccncc2)c(F)c1', 'Cell viability (% @10 μM)', 112.3),
  ('Cc1cnc(NC(=O)c2ccc(NN=C(C#N)C#N)cn2)cn1', 'Cell viability (% @10 μM)', 86.9),
  ('N#CC(C#N)=NNc1ccc(NS(=O)(=O)c2cccs2)nc1', 'Cell viability (% @10 μM)', 116.5),
  ('COc1ccc(CCOc2ccc(NN=C(C#N)C#N)cc2)cc1', 'Cell viability (% @10 μM)', 66.2),
  ('N#CC(C#N)=NNc1ccc(NC(=O)c2cccc(C(F)(F)F)c2)nc1', 'Cell viability (% @10 μM)', 109.8),
  ('Cc1ccc(NC(=O)c2ccc(NN=C(C#N)C#N)cc2C)cn1', 'Cell viability (% @10 μM)', 116.1),
  ('Cc1cnc(C(=O)Nc2ccc(NN=C(C#N)C#N)cc2Cl)cn1', 'Cell viability (% @10 μM)', 82.5),
  ('Cc1ccc(COc2ccc(NN=C(C#N)C#N)cn2)cc1', 'Cell viability (% @10 μM)', 29.2),
  ('N#CC(C#N)=NNc1ccc(Oc2cccc(F)c2)cc1', 'Cell viability (% @10 μM)', 33.6),
  ('N#CC(C#N)=NNc1ccc(NC(=O)c2cccc(F)c2)nc1', 'Cell viability (% @10 μM)', 113);

Look at this compound and give its reported Cell viability (% @10 μM). "N#CC(C#N)=NNc1ccc(NC(=O)c2ccon2)nc1"
157.6

Look at this compound and give its reported Cell viability (% @10 μM). "N#CC(C#N)=NNc1ccc(C(=O)Nc2cncnc2)nc1"
123.1
